- testProtocol: chemical genetic growth profiling, strain panel (AID 1159580);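 note: tested at 20 µM; growth read once vehicle control cultures reached saturation at 30 °C; 1 = growth at the plate median or of vehicle wells; lower values mean less growth of the strain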
- conditionContext: S. cerevisiae deletion strains, growth OD, locus YNR049C, strain mso1, hits give low values
In all, about 5,500 compounds went through this assay and about 2,000 (36%) were called active. About 18% were inconclusive and are not listed. Some of the results follow.
Catalogue of normalized growth values
Could you respond with only the numeric value?

Check out these entries, answers already filled in.
compound	reported
COc1ccc2c(c1)OCC(Cc1ccc(O)c(OC)c1)C2=O (centres undefined)	0.965
COC(=O)[C@@H]1OC(=O)C2OC23[C@@]1(C)CCC1[C@]2(C)C(C[C@@H](O)[C@]13C)C(C)(C)[C@H](OC(C)=O)C[C@@H]2OC(C)=O (some centres undefined)	0.988
COc1ccc2c(c1)OCC(Cc1ccc(OC)c(OC)c1)C2=O (centres undefined)	0.985

Lab note: next compound to report on.
Returns the measured normalized growth for the input compound. Input: CC(=O)OCC(=O)[C@@]1(O)CCC2C3CCC4=CC(=O)C=CC4(C)C3[C@@H](O)C[C@@]21C (some centres undefined)
0.997
